test system: SK-MEL-2 melanoma; experiment: NCI tumour cell line growth inhibition, 48 h
Form field: TGI (one value per entry).

See these solved cases before continuing.
# molecule, target.or.test.system, readout.value
measured = [
    ("O=S1(=O)OCCOS(=O)(=O)C1(I)I", "SK-MEL-2 melanoma", "39.5 µM"),
    ("NCCCNC(=O)c1csc(NC(=O)c2csc(NC(=O)CCCN)n2)n1", "SK-MEL-2 melanoma", "> 100 µM"),
    ("O=C1c2c(O)ccc(O)c2C(=O)c2c(NCCNC(=O)C(O)C(O)C(O)C(O)CO)ccc(NCCNC(=O)C(O)C(O)C(O)C(O)CO)c21 (stereo not given)", "SK-MEL-2 melanoma", "2.88 µM"),
    ("Cc1ccc(N=Nc2c(C)nn(-c3ccccc3)c2C)c(Br)c1", "SK-MEL-2 melanoma", "> 100 µM"),
    ("CCOC(=O)c1c(Sc2ccc([N+](=O)[O-])cc2[N+](=O)[O-])nc2c3ccccc3ccn12", "SK-MEL-2 melanoma", "> 100 µM"),
    ("C1CSC2=C(S1)SC1=C(S2)SC(=C2SC3=C(SC4=C(SCCS4)S3)S2)S1", "SK-MEL-2 melanoma", "> 100 µM"),
]

Name the recorded TGI of COC(=O)N/N=C(/CC1(O)C(=O)Nc2ccc([N+](=O)[O-])cc21)c1ccccc1 (stereo not given) , assay system SK-MEL-2 melanoma.
> 72.9 µM

Lab note: record TGI of O=C(O)C1(Nc2ccc(Cl)cc2)CCCC1 tested on SK-MEL-2 melanoma.
> 100 µM

Please look at COC(=O)CCCC(=O)C1=Nc2ccccc2CN(c2ccc(Cl)cc2)N1 and tell me its recorded TGI on SK-MEL-2 melanoma.
> 100 µM

Report TGI under test system SK-MEL-2 melanoma for CCOc1ccccc1/C=C(/C#N)C(N)=O .
> 100 µM

* * *

tested on: SW-620 colon; test: NCI tumour cell line growth inhibition, 48 h
Readings of TGI for the listed molecules

// known answers, use as guide
# molecule, TGI
measured = [
    ("N#CC1(C#N)C(c2ccc(C3C(C#N)(C#N)C3(C#N)C#N)cc2)C1(C#N)C#N", "> 100 µM"),
    ("COc1cccc2c1C(=O)c1c(O)c3c(c(O)c1C2=O)C[C@@](O)(C(=O)CO)C[C@@H]3OC1CC(N(C)C)C(O)C(C)O1 (stereo partly specified)", "1.38 µM"),
    ("C=CC(O)(CBr)CCC(Br)C(C)(C)Cl (stereo unspecified)", "> 10 µM"),
]

For the molecule CC[C@H]1CC(=O)c2c(cc3c(c2O)C(=O)c2ccccc2C3=O)[C@@]1(C#N)C(=O)OC(C)(C)C , report TGI.
13.4 µM

Give recorded TGI. NCCC1([N+](=O)[O-])C=CN=CC1 (stereo unspecified)
> 100 µM

Tell me its TGI given Oc1ccc(OCCOc2ccc(O)cc2)cc1 as the entry.
> 100 µM

Annotate the molecule CN(C)CCCNc1nc2ccccc2c2c(=O)c3cc(F)ccc3sc12 with its measured TGI.
3.18 µM

Look up TGI of CCOC(=O)C1CSCCSC1 and report it.
> 100 µM

* * *

test system: KM12 colon; experiment: NCI tumour cell line growth inhibition, 48 h; in the data active = GI50 below about 0.43 µM; inactive = the rest
I would appreciate it if you answered using one of these outcomes: active, inactive

# compound, answer.label
records = [
    ("CN(C)CCCNc1nc2ccccc2c2c(=O)c3cc(F)ccc3sc12", "inactive"),
    ("CCC(=O)OCC1OC(n2cnc3c(=S)nc(N)[nH]c32)C(OC(=O)CC)C1OC(=O)CC (stereo not given)", "inactive"),
]

Hey, what did the test say about O=C1C(=O)/C(=C/c2ccccc2)CCCCCC/C1=C/c1ccccc1 ?
inactive

Give the logged outcome of this assay for the following compound: CCCCN1C=CCN(CCCC)C1
inactive

Status in this test for CN(c1ccc(Cl)c(Cl)c1)c1cnc2cc(N)cc(N)c2n1 ?
inactive
